Answer each item with its documented TGI.
system: M14 melanoma; test: NCI tumour cell line growth inhibition, 48 h
# unit: µM | format: bare number

In: Give the reported TGI for COC1/C=C/C(C)C(C(C)C(OC)C(C)CCC(=O)C(C)C(C/C=C/N(C)C=O)OC)OC(=O)/C=C/C=C(\C)CC(OC)CC2=CC(=O)O[C@H](C2)C(C)C(OC)CC(OC)/C=C/C(C)C(OC)C1 (some centres undefined) (system: M14 melanoma).
Out: 0.0686

In: Give the reported TGI for COC(=O)[C@@]12OC[C@]34[C@H]([C@@H](O)[C@@H]1O)[C@@]1(C)[C@H](O)C(=O)C=C(C)[C@@H]1C[C@H]3OC(=O)C(OC(C)=O)[C@@H]24 (some centres undefined) (system: M14 melanoma).
Out: 0.0785

In: Give the reported TGI for COc1cccc(-c2nn(-c3ccccc3)cc2-c2ccnc(NCCCNC(=O)Nc3ccc(Cl)c(Cl)c3)c2)c1 (system: M14 melanoma).
Out: 4.45

In: Give the reported TGI for CCOC(=O)c1c2c(n(Cc3ccc(Cl)cc3Cl)c1C)-c1nc[nH]c1C(=O)C2=O (system: M14 melanoma).
Out: 27.8

In: Give the reported TGI for COc1nc(C#CC2(O)CCCCC2)nc(OC)n1 (system: M14 melanoma).
Out: 38.3

In: Give the reported TGI for CC(C)CCCC(C)[C@H]1CCC2[C@@H]3CCC4Nc5nocc5C[C@]4(C)C3CC[C@@]21C (some centres undefined) (system: M14 melanoma).
Out: 41.8

In: Give the reported TGI for CCN(CC)/C(Sc1ccccc1)=C(\C(Cl)=C(Cl)Cl)[N+](=O)[O-] (system: M14 melanoma).
Out: 37.5

In: Give the reported TGI for CNc1ccc2c(c1)[C@@]1(C)c3ccccc3[C@@H](C2)N1C (system: M14 melanoma).
Out: 49.6

In: Give the reported TGI for CNC(=O)c1cccc2cc(Oc3ccnc4cc(OCC5(N)CC5)c(OC)cc34)ccc12 (system: M14 melanoma).
Out: 24.3

In: Give the reported TGI for CCOP(=O)(OCC)C(C)(CC)N/C(=N/C(NC(C)=O)(C(F)(F)F)C(F)(F)F)NC1=NC(C(F)(F)F)(C(F)(F)F)N=C(C(F)(F)F)O1 (centres undefined) (system: M14 melanoma).
Out: 64.7

In: Give the reported TGI for CN[C@H](C#Cc1c(F)ccc2c1/C(=C/c1[nH]ccc1OC)C(=O)N2)CO (system: M14 melanoma).
Out: 3.14

In: Give the reported TGI for CCn1cc(C(=O)N/N=C/c2ccccc2)c(=O)c2cc(F)c(N3CCNC(C)C3)c(F)c21 (centres undefined) (system: M14 melanoma).
Out: 3.26

---

tested on: MOLT-4 leukemia; assay: NCI tumour cell line growth inhibition, 48 h
Answer each item with its documented TGI.

In: Tell me the measured TGI of CC(C)(C)c1cc(C2=NNC(c3ccccc3)C2)cc(C(C)(C)C)c1O (stereo unspecified) , please.
Out: > 100 µM

In: Tell me the measured TGI of c1ccc(CN2CCC3(CC2)SSC2(CCN(Cc4ccccc4)CC2)S3)cc1 , please.
Out: > 100 µM

In: Tell me the measured TGI of COc1cc(Nc2c(C#N)cnc3cc(OCCCN4CCN(C)CC4)c(OC)cc23)c(Cl)cc1Cl , please.
Out: 7.38 µM

In: Tell me the measured TGI of CCSc1n/c(=C\c2ccco2)c2nncn12 , please.
Out: > 100 µM

In: Tell me the measured TGI of CCN(Cc1ccc(F)cc1)c1ccc(CO)c(F)c1 , please.
Out: 57.6 µM

In: Tell me the measured TGI of O=C(Nc1cccc(-n2cc(-c3ccncc3)c(-c3ccc(Cl)c(O)c3)n2)c1)c1ccc(N2CCOCC2)c(C(F)(F)F)c1 , please.
Out: 36.7 µM

In: Tell me the measured TGI of O=C1Nc2nc3ccccc3n2N=C2CCCC12 (stereo unspecified) , please.
Out: > 100 µM

In: Tell me the measured TGI of CC(=O)OC[C@]12CC[C@@H](C(=O)CBr)[C@@H]1[C@H]1CC[C@@H]3[C@@]4(C)CCCNC(C)(C)[C@@H]4CC[C@@]3(C)[C@]1(C)CC2 , please.
Out: 5.43 µM

In: Tell me the measured TGI of COc1ccc(CNC(=O)NCn2cc(-c3ccccc3)nn2)cc1 , please.
Out: > 100 µM

In: Tell me the measured TGI of Cc1cc(NCCN(C(C)C)C(C)C)nc(/N=C(\N)Nc2ccc(Cl)c(C(F)(F)F)c2)n1 , please.
Out: 1.47 µM

In: Tell me the measured TGI of N#Cc1c(-c2ccc([N+](=O)[O-])cc2)c(C#N)c(=O)n(NS(=O)(=O)c2ccccc2)c1-c1ccccc1 , please.
Out: > 100 µM

In: Tell me the measured TGI of CC(C)OCC1CC(CC(=O)Nc2nncs2)C(=O)O1 (stereo unspecified) , please.
Out: > 100 µM

In: Tell me the measured TGI of N.N.N.N.N.[Cl-].[Co+3].c1ccc(-c2nn[n-]n2)cc1 , please.
Out: > 100 µM

In: Tell me the measured TGI of O=C1c2ccccc2OP(=O)(OCC(F)(F)F)OC1(C(F)(F)F)C(F)(F)F (stereo unspecified) , please.
Out: > 100 µM

In: Tell me the measured TGI of CCOP(=O)(OCC)C(C)(CC)N/C(=N/C(NC(C)=O)(C(F)(F)F)C(F)(F)F)NC1=NC(C(F)(F)F)(C(F)(F)F)N=C(C(F)(F)F)O1 (stereo unspecified) , please.
Out: 45.3 µM

In: Tell me the measured TGI of O=C(CCCN1CCC2(CC1)CC(=O)N(N1CCCCCC1)C2=O)c1ccccc1 , please.
Out: > 100 µM

---

test system: HCT-116 colon; experiment: NCI tumour cell line growth inhibition, 48 h
Answer each item with its documented TGI.
# unit: µM | format: bare number

In: Tell me the measured TGI of NCCSC(c1ccccc1)c1ccccc1 , please.
Out: 30.9

In: Tell me the measured TGI of Cc1cc(Cl)ccc1Nc1nc(C(F)(F)F)ccc1C(=O)N/N=C/c1ccc(Cl)cc1 , please.
Out: 9.87

---

test system: RPMI-8226 leukemia; test: NCI tumour cell line growth inhibition, 48 h
Answer each item with its documented TGI.
# unit: µM | format: bare number

In: Tell me the measured TGI of CC(=O)OC[C@]12CC[C@@H](C(=O)CBr)[C@@H]1[C@H]1CC[C@@H]3[C@@]4(C)CCCNC(C)(C)[C@@H]4CC[C@@]3(C)[C@]1(C)CC2 , please.
Out: 6.69

In: Tell me the measured TGI of Nc1ccc2c(SCc3ccc([N+](=O)[O-])cc3)c3ccccc3nc2c1 , please.
Out: 14.2

In: Tell me the measured TGI of CNc1ccc2c(c1)[C@@]1(C)c3ccccc3[C@@H](C2)N1C , please.
Out: 38.9

In: Tell me the measured TGI of COc1ccc(C(=O)/C=C/c2cccc([N+](=O)[O-])c2)c(OC)c1 , please.
Out: 3.14

---

Answer each item with its documented TGI.
tested on: SK-MEL-28 melanoma; experiment: NCI tumour cell line growth inhibition, 48 h

In: Tell me the measured TGI of O=C(CCCN1CCC2(CC1)CC(=O)N(N1CCCCCC1)C2=O)c1ccccc1 , please.
Out: > 100 µM

In: Tell me the measured TGI of Clc1cc2c(cc1Cl)CC(NCCN1CCCC1)CC2 (stereo unspecified) , please.
Out: 29.9 µM

In: Tell me the measured TGI of O=C(Nc1ccncc1)C(=O)c1cn(Cc2ccc(Cl)cc2)c2ccccc12 , please.
Out: > 100 µM

In: Tell me the measured TGI of N#Cc1c(-c2ccc([N+](=O)[O-])cc2)c(C#N)c(=O)n(NS(=O)(=O)c2ccccc2)c1-c1ccccc1 , please.
Out: > 100 µM

In: Tell me the measured TGI of C[C@]12CCC(=O)C=C1CC[C@@H]1C2CC[C@]2(C)Nc3c(cnn3-c3ccccc3)CC12 (stereo partly specified) , please.
Out: > 100 µM

In: Tell me the measured TGI of COC(=O)[C@@]12OC[C@]34[C@H]([C@@H](O)[C@@H]1O)[C@@]1(C)[C@H](O)C(=O)C=C(C)[C@@H]1C[C@H]3OC(=O)C(OC(C)=O)[C@@H]24 (stereo partly specified) , please.
Out: 0.0642 µM

In: Tell me the measured TGI of CNCCCn1c2c(c3ccc([N+](=O)[O-])cc3c1=O)C(=O)c1cc(OC)cnc1-2 , please.
Out: 2.1 µM

In: Tell me the measured TGI of O=C1c2ccccc2OP(=O)(OCC(F)(F)F)OC1(C(F)(F)F)C(F)(F)F (stereo unspecified) , please.
Out: > 100 µM

In: Tell me the measured TGI of NC(=O)c1ccc(I)c(N=O)c1 , please.
Out: > 100 µM

In: Tell me the measured TGI of OCC1C(/C=C/c2ccoc2)ON2CCCC12 (stereo unspecified) , please.
Out: > 100 µM

In: Tell me the measured TGI of O=C1C(N2CC2)=C(N2CC2)C(=O)C(N2CC2)=C1N1CC1 , please.
Out: 2.32 µM

In: Tell me the measured TGI of Cc1ccc(N(C(=O)Nc2ccccc2)C2=NCC(C)S2)cc1C (stereo unspecified) , please.
Out: 31.2 µM

In: Tell me the measured TGI of N#CCCN(CCCN(CCCN(C(=O)Nc1ccccc1)c1ccccc1)C(=O)Nc1ccccc1)C(=O)Nc1ccccc1 , please.
Out: > 100 µM

In: Tell me the measured TGI of COc1ccc(C(=O)/C=C/c2cccc([N+](=O)[O-])c2)c(OC)c1 , please.
Out: > 50 µM

In: Tell me the measured TGI of CC[C@@H]1CC[C@@H]2[C@H](CC[C@]3(C)[C@@H](OS(=O)(=O)c4ccc(C)cc4)CC[C@@H]23)[C@H]1COS(=O)(=O)c1ccc(C)cc1 , please.
Out: > 100 µM

In: Tell me the measured TGI of CCn1c(SCC(=O)NNC(=S)Nc2ccc([N+](=O)[O-])cc2)nc2ccccc2c1=O , please.
Out: > 100 µM
